- EXPERIMENTAL_DETAILS: chemical genetic growth profiling, strain panel (AID 1159580);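 also: tested at 20 µM; growth read once vehicle control cultures reached saturation at 30 °C; 1 = growth at the plate median or of vehicle wells; lower values mean less growth of the strain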
- PARTICULARS: S. cerevisiae deletion strains, growth OD, locus YLR262C, strain YPT6 (second series)
The whole screen tested about 5,500 compounds, of which about 2,000 (36%) were called active. About 18% were inconclusive and are not listed. Rule as the data show it: active = normalized growth mostly below about 0.91 (no sharp cut-off); inconclusive = no clear call, values can overlap the other calls; inactive = mostly above about 0.92. The list shows a part of the results.
Possible outcomes: True for active, False for inactive

| COMPOUND | CATEGORY |
| --- | --- |
| OC/C=C/c1ccc(O)c(O)c1 | False |
| O=C(O)c1cc(=O)c2c(OCC(O)COc3cccc4oc(C(=O)O)cc(=O)c34)cccc2o1 | False |
| Oc1ccc(/C=C/c2cc(O)cc(O)c2)cc1 | True |
| O=C(/C=C/c1ccc(O)c(O)c1)O[C@@H]1C[C@](O)(C(=O)O)C[C@@H](O)[C@H]1O | False |
| C[C@]12CCC3c4ccc(OS(=O)(=O)O)cc4CCC3C1CCC2=O (stereo partly specified) | False |
| C#C[C@]1(O)CCC2C3CCc4cc(O)ccc4C3CC[C@@]21C (stereo partly specified) | True |

---

- EXPERIMENTAL_DETAILS: chemical genetic growth profiling, strain panel (AID 1159580);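 also: tested at 20 µM; growth read once vehicle control cultures reached saturation at 30 °C; 1 = growth at the plate median or of vehicle wells; lower values mean less growth of the strain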
- PARTICULARS: S. cerevisiae deletion strains, growth OD, locus YJL157C, strain FAR1, stronger effect = lower value
The campaign covered roughly 5,500 compounds. About 2,000 (36%) were called active. Not shown: some 18% with an inconclusive outcome. Some of the results follow.
EXPERIMENTAL_ENDPOINT: normalized growth

| STRUCTURE | MEAS_VALUE |
| --- | --- |
| COc1cc(C(=O)Oc2c(Cl)cc(Cl)cc2C=Nc2cccc(C(F)(F)F)c2)cc(OC)c1OC | 0.617 |
| NC(=NC(=O)c1ccc(Cl)cc1)c1cccs1 | 0.833 |
| O=C(Nc1ccc(Cl)cc1Cl)c1cnccc1C(F)(F)F | 0.973 |
| COc1cc(N=Cc2cc(Cl)cc(Cl)c2OS(=O)(=O)c2ccc(C)cc2)c(OC)cc1Cl | 0.928 |

---

- EXPERIMENTAL_DETAILS: chemical genetic growth profiling, strain panel (AID 1159580);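 also: tested at 20 µM; growth read once vehicle control cultures reached saturation at 30 °C; 1 = growth at the plate median or of vehicle wells; lower values mean less growth of the strain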
- PARTICULARS: S. cerevisiae deletion strains, growth OD, locus YLR268W, strain sec22, stronger effect = lower value
About 2,000 (36%) of roughly 5,500 compounds were called active. Inconclusive results (about 18%) are left out. This is one part of the list.

| COMPOUND | normalized growth |
| --- | --- |
| CC1=C(/C=C/C(C)=C/C=C/C(C)=C\C(=O)O)C(C)(C)CCC1 | 0.966 |
| Nc1nc2ncc(CNc3ccc(C(=O)N[C@@H](CCC(=O)O)C(=O)O)cc3)nc2c(=O)[nH]1 | 0.963 |
| CC1=C(/C=C/C(C)=C/C=C/C(C)=C/C(=O)O)C(C)(C)CCC1 | 1 |
| CN=C1CN(O)C(c2ccccc2)=c2cc(Cl)ccc2=N1 | 0.991 |
| OCC(S)CS (configuration not stated) | 0.955 |
| COc1ccc(/C=C/C(=O)O)cc1OC | 1.05 |
| CC1=C(/C=C/C(C)=C/C=C/C(C)=C/CO)C(C)(C)CCC1 | 1 |
| COc1c(C(=O)O)ccc2c1CCC(C)(C)O2 | 0.989 |
| CCOC(N)=O | 1 |
| CCOP(=S)(OCC)SCSCC | 0.991 |
| Nc1nc(N)c2nc(CNc3ccc(C(=O)NC(CCC(=O)O)C(=O)O)cc3)cnc2n1 (configuration not stated) | 0.977 |
| Nc1nc2c(c(=O)[nH]1)N(C=O)C(CNc1ccc(C(=O)N[C@@H](CCC(=O)O)C(=O)O)cc1)CN2 (some centres not stated) | 0.984 |
| CCOP(=S)(OCC)SCSP(=S)(OCC)OCC | 0.981 |
| CN(Cc1cnc2nc(N)nc(N)c2n1)c1ccc(C(=O)NC(CCC(=O)O)C(=O)O)cc1 (configuration not stated) | 0.984 |
| COc1ccc(/C=C/c2cc(O)cc(O)c2)cc1 | 0.872 |
| COc1cc(/C=C/C(=O)O)ccc1O | 0.967 |
| CC1=C(/C=C/C(C)=C/C=C/C(C)=C/C=C/C=C(C)/C=C/C=C(C)/C=C/C2=C(C)CCCC2(C)C)C(C)(C)CCC1 | 0.992 |
| COc1ccc(/C=C/c2cc(O)cc(O[C@@H]3O[C@H](CO)[C@@H](O)[C@H](O)[C@H]3O)c2)cc1O | 1.02 |
| CC12CCCC(O)(C1)C1CC(C)(C)C1CC2 (configuration not stated) | 0.992 |
| CC1=CC(=O)CC(C)(C)C1(O)/C=C/C(C)=C\C(=O)O (configuration not stated) | 0.993 |
| CC[C@@H](C(=O)[C@@H](C)[C@@H](O)[C@H](C)[C@@H]1O[C@@H]([C@@H](CC)C(=O)O)CC[C@@H]1C)[C@H]1OC2(C=C[C@@H](O)[C@]3(CC[C@@](C)([C@H]4CC[C@](O)(CC)[C@H](C)O4)O3)O2)[C@H](C)C[C@@H]1C (some centres not stated) | 0.843 |
| CC(=O)C1=C(O)C2C3c4c[nH]c5cccc(c45)CC3C(C)(C)N2C1=O (configuration not stated) | 0.995 |
